System: MS2 coat protein
TEST DETAILS: apparent KD of MS2 coat protein; higher = weaker reporter binding
PROTOCOL CONDITIONS: Eterna round: R107; input ligand: arginine 13.2 mM
MEASUREMENT LABEL: apparent KD of MS2 coat protein (nM)
Answer in nM, number only, no unit symbol.

Solved entries:
GAAACGUAGGUGGAGCGGUGAAAUGGCGAUACCAGCGUGGAAACAUGCCCUUGGCAGCGUUAGAACAUGAGGAUCACCCAUGUUU [#22 Exclusion-TheophyllineA]; 12.9
CGGCCCUCAGAUGAGGAUCACCCAUCUGAUACCAGCCUGGAAACAGGCCCUUGGCAGCAGAAGGUCAUCAAAGAUGACCAAGCCG [TheoAX 30 #OpenEnded #AlternativeMS2]; 10

Now take the following sequence into account.
Exercise: Fill in: apparent KD of MS2 coat protein of AUUCAUGGAAACAUGAGAUAUCCUACCGGUCGAGGACCGGUACGGCCGCCACUCGGUUGGUGGCACAUGAGGAUCACCCAUGUUA [SS Tryp A #12] is ___
Key: 77.6

====

Test system: MS2 coat protein
TEST DETAILS: apparent KD of MS2 coat protein; designed switch direction (-1 OFF switch, 1 ON switch): -1; higher = weaker reporter binding
PROTOCOL CONDITIONS: Eterna round: R95; input ligand: none
MEASUREMENT LABEL: apparent KD of MS2 coat protein
Write the numeric value and follow it with the unit.

Solved entries:
GUGAAGUAAGGAUAUACAUGAGGAUCACCCAUGUGGAGGAAGGUGAUGGGAGUAGGUAGUAGAAGGUACGAGGA [JR_Exclu3_Sub064] (puzzle: Exclusion 3); 201 nM
UUUUUCGUUUAAGCUUCGUACAUGAGGAUCACCCAUGUUUUUAGUUCUGUGUUGGUCAGUAUGGAAGUUCGUCUUAU [JR_SV3TOV1_Sub089] (puzzle: Sensor v3, turn-off variant 1); 371 nM
CAAAAGCUAGGAUAUACAUGAGGAUCACCCAUGUAUAGGUGGGCAGUUCUUAUCAAACGUAGAAGGAGCAUAAA [Uslaisan] (puzzle: Exclusion 3); 16.6 nM
UUUAAUUUUUUUUUUUUACAAGCUUUUUGCUCGUCUUAUACAUGAGGAUCACCCAUGUGAAUGGAGGGUAAAUUAUC [JMF 84] (puzzle: Sensor v3, turn-off variant 2); 16.8 nM

Exercise: Fill in: apparent KD of MS2 coat protein of UGGGUUCUCCAUAGAAGUAACAUGAGGAUCACCCAUGUAGGGCAAGUUUUUUGUUCGUCAUAGGCUGUGGAUUUGGA [JR_SV3TOV1_Sub020] (puzzle: Sensor v3, turn-off variant 1) is ___
Key: 133 nM

====

Below, each entry is listed with its recorded apparent KD of MS2 coat protein.
Tested on: MS2 coat protein
TEST DETAILS: apparent KD of MS2 coat protein; designed switch direction (-1 OFF switch, 1 ON switch): -1; higher = weaker reporter binding
PROTOCOL CONDITIONS: input ligand: FMN 200 uM
Write the numeric value and follow it with the unit.

Solved entries:
AUCAGCUCGUCAGGAUAUAUUAACAUGAGGAUCACCCAUGUAAGAUCAGGCUUCGGCCAAUGUUAAUAGAAGGGACGAGCUGAU [ENG2/12-B2] (Eterna round: R96, puzzle: Exclusion NG 2); 710 nM
CUUGUUUAUGUAGGAUAUGCCUGGCGUGCCUUUGCAGAAGGACAUGAGGAUCACCCAUGUAUUGCGGUCUGCGUUCAGAUCGCC [salish99_ExNG1_r4_042] (Eterna round: R96, puzzle: Exclusion NG 1); 34.9 nM
UACCUGAGGCUUUGCUUUAGGCUUACAUGAGGAUCACCCAUGUAGGAUAUGGUAGGCUUUGCUUACCAGAAGGACAUGGAAAUU [Mat - Exclusion NG 3 - Mod of JL - D20] (Eterna round: R96, puzzle: Exclusion NG 3); 349 nM
UUUUUCUCAGGAUAUACAUGAGGAUCACCCAUGUAUAUUAAUGAUAAUACAUGGGAAUGUAGAAGGGAGCUCAU [Omei Ex3 Pseudoloop 13] (Eterna round: R97, puzzle: Exclusion 3); 111 nM
CAGUCGAUAAGAUCAAUUAAUUAACAUGAGGAUCACCCAUGUGAGGAUAUCAGCUCGAUUAGAGCUGAGAAGGCACAACGACUG [ExNG3/17-A1] (Eterna round: R96, puzzle: Exclusion NG 3); 232 nM

Exercise: Fill in: apparent KD of MS2 coat protein of AGCUAGUCAGGAUAUACAAACAUGUCAAAAGACGUGAAGAGACAUGAGGAUCACCCAUGUAGAAGGGACUAGCA [Mat - Exclusion 2 - JL mod - D13] (Eterna round: R96, puzzle: Exclusion 2) is ___
Key: 88.1 nM

Exercise: Fill in: apparent KD of MS2 coat protein of GUUUGACAUGAGGAUCACCCAUGUGAGGAUAUACGAUUAGCUGCUAGGUAGUUAGUAUGUAGAAGGUGCGUGUU [EX1 #69] (Eterna round: R97, puzzle: Exclusion 1) is ___
Key: 97.9 nM

Exercise: Fill in: apparent KD of MS2 coat protein of UUAAAUCAUGUAGGAUAUGCGUGGCGAAGCUAUGCAGAAGGACAUGAGGAUCACCCAUGUGCUAGCGUCUGCGUACAGAUGCAA [JL ENG1 1.11] (Eterna round: R96, puzzle: Exclusion NG 1) is ___
Key: 189 nM

Exercise: Fill in: apparent KD of MS2 coat protein of CUAAUAUAUCAGGAUAUGAUUUUAUGUGUUGGAUCAGAAGGGAUAACAUGAGGAUCACCCAUGUUGUGGAGUGA [JR_Ex6_Sub037] (Eterna round: R97, puzzle: Exclusion 6) is ___
Key: 271 nM

Exercise: Fill in: apparent KD of MS2 coat protein of GCUUCGGCAGGAUAUACAAUGAAGUUGAGAAAUCGGCUUCGACAUGAGGAUCACCCAUGUAGAAGGGUUGAAGU [-26.3, -24 kcal, A 32% 3, 3 bis] (Eterna round: R97, puzzle: Exclusion 2) is ___
Key: 36.3 nM

Exercise: Fill in: apparent KD of MS2 coat protein of CUUUUGUGAGGAUAUUAGUAGUAAAUGAAUAAAAUUAUUACUGAGAAGGCACAUGAGGAUCACCCAUGUUCCUU [Mat - Exclusion 4 - Eli Mod - D19] (Eterna round: R97, puzzle: Exclusion 4) is ___
Key: 83.6 nM

Value source: the supplement of paper PMC9170038
